Could you please report measured combination Emax for the items listed next?
Test system: RF-48 (B-Cell Non-Hodgkin's Lymphoma)
Assay: combination Emax (second highest fraction inhibited in the dose matrix, 72 h); higher = more inhibition; extreme values may be limits of the assay
One number for each entry.

| Molecule | System Name | combination Emax |
| --- | --- | --- |
| COc1cccc(OCCCN)c1-c1cc(Nc2cnc(C#N)cn2)n[nH]1 [Prexasertib] + Cc1cc2ncnn2cc1Nc1ncc2c(n1)n(C1CCOCC1)c(=O)n2C [AZD7648] (first compound max 1 µM, 7x7, partner max 10 µM) | RF-48 (B-Cell Non-Hodgkin's Lymphoma) | 0.725 |

Turning to the following molecule.
Field request: combination Emax | item: CCc1c2c(nc3ccc(O)cc13)-c1cc3c(c(=O)n1C2)COC(=O)[C@]3(O)CC [SN-38] + O=C(c1cc(Cc2n[nH]c(=O)c3ccccc23)ccc1F)N1CCN(C(=O)C2CC2)CC1 [Olaparib] (first compound max 0.3 µM, 7x7, partner max 10 µM)
0.775

====

Kindly supply the reported Bliss excess values for the records listed here.
System: EW-24 (Ewing's Sarcoma)
Assay: Bliss excess, mean over the matrix (fraction); higher = more synergy
Answers are plain numbers.

Recorded Bliss excess, per entry:
| Compound | Result Number |
| --- | --- |
| COc1cccc(OCCCN)c1-c1cc(Nc2cnc(C#N)cn2)n[nH]1 [Prexasertib] + C=CCn1c(=O)c2cnc(Nc3ccc(N4CCN(C)CC4)cc3)nc2n1-c1cccc(C(C)(C)O)n1 [AZD1775] (first compound max 1 µM, partner max 1 µM) | -0.1 |
| COc1cccc2c1C(=O)c1c(O)c3c(c(O)c1C2=O)C[C@@](O)(C(=O)CO)C[C@@H]3O[C@H]1C[C@H](N)[C@H](O)[C@H](C)O1 [Doxorubicin] + Cc1cc2ncnn2cc1Nc1ncc2c(n1)n(C1CCOCC1)c(=O)n2C [AZD7648] (first compound max 1 µM, 7x7, partner max 10 µM) | 0.0145 |
| CC1(C)CCC(CN2CCN(c3ccc(C(=O)NS(=O)(=O)c4ccc(NCC5CCOCC5)c([N+](=O)[O-])c4)c(Oc4cnc5[nH]ccc5c4)c3)CC2)=C(c2ccc(Cl)cc2)C1 [Venetoclax] + C[C@@H](Nc1cc(F)cc(F)c1)c1cc(C(=O)N(C)C)cc2c(=O)cc(N3CCOCC3)oc12 [AZD8186] (first compound max 1 µM, 7x7, partner max 3 µM) | -0.01 |
| Cc1cc2ncnn2cc1Nc1ncc2c(n1)n(C1CCOCC1)c(=O)n2C [AZD7648] + C=CCn1c(=O)c2cnc(Nc3ccc(N4CCN(C)CC4)cc3)nc2n1-c1cccc(C(C)(C)O)n1 [AZD1775] (first compound max 10 µM, partner max 1 µM) | -0.0294 |
| C[C@@H](Nc1cc(F)cc(F)c1)c1cc(C(=O)N(C)C)cc2c(=O)cc(N3CCOCC3)oc12 [AZD8186] + C1CN(CCC1(C(=O)N[C@@H](CCO)C2=CC=C(C=C2)Cl)N)C3=NC=NC4=C3C=CN4 [AZD5363] (first compound max 10 µM, 7x7, partner max 10 µM) | -0.0033 |
| Cc1c2c(nn1C)CSCc1cc(n(C)n1)CSc1cc(c3ccccc3c1)OCCCc1c(C(=O)O)n(C)c3c-2c(Cl)ccc13 [AZD5991] + Cn1cnc2c(F)c(Nc3ccc(Br)cc3Cl)c(C(=O)NOCCO)cc21 [Selumetinib] (first compound max 1 µM, 7x7, partner max 3 µM) | -0.017 |
| Cn1cnc2c(F)c(Nc3ccc(Br)cc3Cl)c(C(=O)NOCCO)cc21 [Selumetinib] + CC(C)n1c(=O)n(C)c2cnc3cc(F)c(-c4ccc(OCCCN5CCCCC5)nc4)cc3c21 [AZD1390] (first compound max 10 µM, 7x7, partner max 0.3 µM) | -0.0594 |

Param readout = Bliss excess; param system = EW-24 (Ewing's Sarcoma); param query = NC1(C(=O)N[C@@H](CCO)c2ccc(Cl)cc2)CCN(c2ncnc3[nH]ccc23)CC1 [Capivasertib] + Cn1cnc2c(F)c(Nc3ccc(Br)cc3Cl)c(C(=O)NOCCO)cc21 [Selumetinib] (first compound max 10 µM, 7x7, partner max 10 µM) ; response: value
-0.0223

====

System: SU8686 (Pancreatic Carcinoma)
Experiment: Bliss excess, mean over the matrix (fraction); higher = more synergy
Outcome Measure: Bliss excess

Known Bliss excess results, listed for orientation:
| Compound | Bliss excess |
| --- | --- |
| CN(C)CCCOc1ccc(-c2ccc3ncc4c(c3c2)n(C2CCOCC2)c(=O)n4C)cn1 [AZD0156] + CCN(CCO)CCCOc1ccc2c(Nc3cc(CC(=O)Nc4cccc(F)c4)[nH]n3)ncnc2c1 [AZD2811] (first compound max 1 µM, 7x7, partner max 1 µM) | -0.0375 |
| CN(C)CCCOc1ccc(-c2ccc3ncc4c(c3c2)n(C2CCOCC2)c(=O)n4C)cn1 [AZD0156] + O=C(c1cc(Cc2n[nH]c(=O)c3ccccc23)ccc1F)N1CCN(C(=O)C2CC2)CC1 [Olaparib] (first compound max 3 µM, partner max 3 µM) | -0.0011 |
| COc1cccc(OCCCN)c1-c1cc(Nc2cnc(C#N)cn2)n[nH]1 [Prexasertib] + C=CCn1c(=O)c2cnc(Nc3ccc(N4CCN(C)CC4)cc3)nc2n1-c1cccc(C(C)(C)O)n1 [AZD1775] (first compound max 1 µM, partner max 1 µM) | 0.0024 |

For the 2 compounds below, give their Bliss excess values.
1. NC1(C(=O)N[C@@H](CCO)c2ccc(Cl)cc2)CCN(c2ncnc3[nH]ccc23)CC1 [Capivasertib] + CC(C)n1c(=O)n(C)c2cnc3cc(F)c(-c4ccc(OCCCN5CCCCC5)nc4)cc3c21 [AZD1390] (first compound max 10 µM, 7x7, partner max 0.3 µM)
2. Cc1cc2ncnn2cc1Nc1ncc2c(n1)n(C1CCOCC1)c(=O)n2C [AZD7648] + C=CCn1c(=O)c2cnc(Nc3ccc(N4CCN(C)CC4)cc3)nc2n1-c1cccc(C(C)(C)O)n1 [AZD1775] (first compound max 10 µM, partner max 1 µM)

1. -0.0484
2. -0.0542

====

Tested on: UACC-62 (Melanoma)
Experiment: combination Emax (second highest fraction inhibited in the dose matrix, 72 h); higher = more inhibition; extreme values may be limits of the assay
Outcome Measure: combination Emax
One number for each entry.

Illustrative cases are given below, each with its answer.
| Molecule | System Name | combination Emax |
| --- | --- | --- |
| CC(=O)c1c(C)c2cnc(Nc3ccc(N4CCNCC4)cn3)nc2n(C2CCCC2)c1=O [Palbociclib] + CC1(C)CCC(CN2CCN(c3ccc(C(=O)NS(=O)(=O)c4ccc(NCC5CCOCC5)c([N+](=O)[O-])c4)c(Oc4cnc5[nH]ccc5c4)c3)CC2)=C(c2ccc(Cl)cc2)C1 [Venetoclax] (first compound max 10 µM, 7x7, partner max 1 µM) | UACC-62 (Melanoma) | 0.0969 |
| CN(CCO)CC[C@H](CSc1ccccc1)Nc1ccc(S(=O)(=O)NC(=O)c2ccc(N3CCC([C@@H](O)c4ccccc4-c4ccc(Cl)cc4)CC3)cc2)cc1S(=O)(=O)C(F)(F)F [AZD4320] + Nc1ccn([C@@H]2O[C@H](CO)[C@@H](O)C2(F)F)c(=O)n1 [Gemcitabine] (first compound max 1 µM, 7x7, partner max 0.3 µM) | UACC-62 (Melanoma) | 0.72 |

Kindly consider the entry below.
Tell me the measured combination Emax of Cc1c2c(nn1C)CSCc1cc(n(C)n1)CSc1cc(c3ccccc3c1)OCCCc1c(C(=O)O)n(C)c3c-2c(Cl)ccc13 [AZD5991] + Nc1ccn([C@@H]2O[C@H](CO)[C@@H](O)C2(F)F)c(=O)n1 [Gemcitabine] (first compound max 1 µM, 7x7, partner max 0.3 µM) , please.
0.753

====

Test system: NUGC-3 (Gastric Carcinoma)
Test: combination Emax (second highest fraction inhibited in the dose matrix, 72 h); higher = more inhibition; extreme values may be limits of the assay
For each record, write down the corresponding combination Emax.
Numbers only.

| Compound | combination Emax |
| --- | --- |
| CN(CCO)CC[C@H](CSc1ccccc1)Nc1ccc(S(=O)(=O)NC(=O)c2ccc(N3CCC([C@@H](O)c4ccccc4-c4ccc(Cl)cc4)CC3)cc2)cc1S(=O)(=O)C(F)(F)F [AZD4320] + CCN(CCO)CCCOc1ccc2c(Nc3cc(CC(=O)Nc4cccc(F)c4)[nH]n3)ncnc2c1 [AZD2811] (first compound max 1 µM, 7x7, partner max 1 µM) | 0.498 |
| CS(=O)(=O)CCNCc1ccc(-c2ccc3ncnc(Nc4ccc(OCc5cccc(F)c5)c(Cl)c4)c3c2)o1 [Lapatinib] + NC1(c2ccc(-c3nc4ccn5c(=O)[nH]nc5c4cc3-c3ccccc3)cc2)CCC1 [MK-2206] (first compound max 10 µM, 7x7, partner max 10 µM) | 0.91 |
| CCN(CCO)CCCOc1ccc2c(Nc3cc(CC(=O)Nc4cccc(F)c4)[nH]n3)ncnc2c1 [AZD2811] + C[C@@H]1COCCN1C2=NC(=NC(=C2)C3(CC3)[S@](=N)(=O)C)C4=C5C=CNC5=NC=C4 [AZD6738] (first compound max 1 µM, 7x7, partner max 10 µM) | 0.697 |

What value of combination Emax has been reported for the following compound? COc1nnc2ccc(N3CCC(c4ccc(OCCN5CCN(C)C(=O)[C@H]5C)cc4)CC3)nn12 [AZD5153] + Cn1cnc2c(F)c(Nc3ccc(Br)cc3Cl)c(C(=O)NOCCO)cc21 [Selumetinib] (first compound max 1 µM, 7x7, partner max 10 µM)
0.649
